This collection of values is drawn from patent US11332470B2.

# TESTED_SYSTEM: CXCR4 (U87.CXCR4 cells) (Homo sapiens, UniProt P61073)
# Sequence (P61073 whole entry): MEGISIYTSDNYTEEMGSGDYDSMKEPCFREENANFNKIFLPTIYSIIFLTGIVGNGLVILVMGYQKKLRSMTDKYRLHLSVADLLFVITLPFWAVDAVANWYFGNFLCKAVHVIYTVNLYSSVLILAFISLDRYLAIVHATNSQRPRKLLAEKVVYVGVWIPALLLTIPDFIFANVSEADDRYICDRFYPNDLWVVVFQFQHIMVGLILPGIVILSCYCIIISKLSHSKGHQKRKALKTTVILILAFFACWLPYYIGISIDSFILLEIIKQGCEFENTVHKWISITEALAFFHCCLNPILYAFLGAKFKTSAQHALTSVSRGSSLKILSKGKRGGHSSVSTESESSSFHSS
# ASSAY_REMARKS: Intracellular CXCL-12-induced calcium mobilization assay (FLIPR)
# CONDITION_LABEL: CXCL-12 25-50 ng/mL, read-out: IC50 CXCL-12 Ca2+ flux U87.CXCR4+
pIC50: −log10 of the molar value.
MEASURED_ENDPOINT: pIC50

Sample records with pIC50:
COMPOUND	TESTED_SYSTEM	pIC50
Cc1cccnc1C1CCCN1Cc1cn2c(N3CCN(C4CC4)CC3)cccc2n1 (centres unmarked) [Compound I-32]	CXCR4 (U87.CXCR4 cells) (Homo sapiens, UniProt P61073)	6.00 to 7.00
Cc1cccnc1C1CCCCN1Cc1ccccc1-n1cccn1 (centres unmarked) [Compound I-2]	CXCR4 (U87.CXCR4 cells) (Homo sapiens, UniProt P61073)	≤ 6.00
c1ccc(N2CCN(c3c(CN4CCCC4c4ccccn4)nc4ccccn34)CC2)cc1 (centres unmarked) [Compound I-96]	CXCR4 (U87.CXCR4 cells) (Homo sapiens, UniProt P61073)	≤ 6.00
Cc1cccnc1C1CCCN1Cc1cn2c(CCC#N)cccc2n1 (centres unmarked) [Compound I-83]	CXCR4 (U87.CXCR4 cells) (Homo sapiens, UniProt P61073)	≤ 6.00

Okay, next one:
Request: Respond only with pIC50 recorded for Cc1cccnc1C1CCCN1C(=O)c1cn2c(N3CCN(C)CC3)cccc2n1 (centres unmarked) [Compound I-74]
Result: ≤ 6.00

----------
# ASSAY_REMARKS: in vitro
# CONDITION_LABEL: human, Caco-2, pH 7.4
MEASURED_ENDPOINT: Papp A→B at 90 min, 10 μM

MOLECULE	OBSERVED_VALUE
Cc1cccnc1CN1CCCC1c1nccn1CC1CCN(C)CC1 (centres unmarked) [Compound I-92]	0.1 to 10 ×10⁻⁶ cm/s
Cc1cccnc1C1CCCN1Cc1nccn1CC1CCOCC1 (centres unmarked) [Compound I-110]	10 to 30 ×10⁻⁶ cm/s

Request: Respond only with Papp A→B at 90 min, 10 μM recorded for CN1CCN(c2c(CN3CCCC3c3ncccc3F)nc3ccccn23)CC1 (centres unmarked) [Compound I-60]
Result: 10 to 30 ×10⁻⁶ cm/s

Request: Respond only with Papp A→B at 90 min, 10 μM recorded for CN1CCN(c2c(CN3CCCC3c3ccccn3)nc3ccccn23)CC1 (centres unmarked) [Compound I-41]
Result: 10 to 30 ×10⁻⁶ cm/s

Request: Respond only with Papp A→B at 90 min, 10 μM recorded for CN1CCN(c2c(CN3CCCC3c3ccccn3)nc3c(F)cccn23)CC1 (centres unmarked) [Compound I-61]
Result: 10 to 30 ×10⁻⁶ cm/s

----------
# ASSAY_REMARKS: Mouse brain uptake assay (pharmacokinetics and brain penetration after IV administration)
# Type: in vivo, Male CD1 Mice
# CONDITION_LABEL: male, CD1, plasma; mouse, 3 mg/kg IV, 0-1 h, 3 time points; read-out: t½ (half life) (converted)
MEASURED_ENDPOINT: half-life (min)

(A) CN1CCN(c2c(CN3CCCC3c3ncccc3Cl)nc3ccccn23)CC1 (stereo not drawn) [Compound I-59]
(B) CN1CCN(c2cccc3[nH]c(CN4CCCC4c4ncccc4Cl)nc23)CC1 (stereo not drawn) [Compound I-26]
Request: Form field 'greater half-life' accepts A or B ; which applies? Give the chosen item's label as your response.
Result: A
(A: 223 min, B: 16.1 min)
